Source of measurements: patent US11173145B2

Target of assay: IDO1 (Homo sapiens)
Construct: endogenous in cells
Sequence (P14902 whole entry): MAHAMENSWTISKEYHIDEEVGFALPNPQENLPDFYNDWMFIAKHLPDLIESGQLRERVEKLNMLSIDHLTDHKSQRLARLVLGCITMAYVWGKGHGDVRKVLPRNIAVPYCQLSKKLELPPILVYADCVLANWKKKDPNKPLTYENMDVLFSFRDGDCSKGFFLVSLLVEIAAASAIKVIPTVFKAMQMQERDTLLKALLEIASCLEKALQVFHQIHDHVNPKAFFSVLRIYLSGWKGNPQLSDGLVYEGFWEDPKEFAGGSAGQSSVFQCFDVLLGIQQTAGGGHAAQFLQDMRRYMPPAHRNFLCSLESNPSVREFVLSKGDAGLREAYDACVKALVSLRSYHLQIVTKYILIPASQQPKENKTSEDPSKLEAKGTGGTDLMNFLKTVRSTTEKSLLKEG
Assay comment: IDO1 cell-based assay (HeLa cells, IFNgamma-induced, N-formylkynurenine/L-tryptophan by RFMS)
Study conditions: 10 ng/mL IFNgamma, 24 hours
Property: IC50; scope: individual molecules

>  <Molecule>
CC[C@@H](NC(=O)c1ccc(Cl)cc1)[C@H]1[C@@H]2C[C@@H](NC(=O)c3ccccn3)C[C@@H]21 [Compound 333]

>  <IC50>
< 0.2 µM

$$$$
>  <Molecule>
CCC(NC(=O)c1ccc(Cl)cc1)[C@H]1[C@@H]2C[C@@H](n3cc(C(C)(C)O)nn3)C[C@@H]21 (some centres unmarked) [Compound 141]

>  <IC50>
0.2 to 2 µM

$$$$
>  <Molecule>
CCC(NC(=O)c1ccc(Cl)cc1)[C@H]1[C@@H]2C[C@@H](Oc3ccccc3CC(N)=O)C[C@@H]21 (some centres unmarked) [Compound 45]

>  <IC50>
< 0.2 µM

$$$$
>  <Molecule>
CCC(NC(=O)c1ccc(Cl)cc1)[C@H]1[C@@H]2C[C@H](O)C[C@@H]21 (some centres unmarked) [Compound 1]

>  <IC50>
2 to 5 µM

$$$$
>  <Molecule>
CCC(NC(=O)c1ccc(Cl)cc1)[C@H]1[C@@H]2C[C@@H](n3cnc4cc(F)ccc4c3=O)C[C@@H]21 (some centres unmarked) [Compound 34]

>  <IC50>
< 0.2 µM

$$$$
>  <Molecule>
CCC(NC(=O)c1ccc(Cl)cc1)[C@H]1[C@@H]2C[C@@H](n3ncc4c(F)cccc43)C[C@@H]21 (some centres unmarked) [Compound 210]

>  <IC50>
< 0.2 µM

$$$$
>  <Molecule>
C[C@@H](NC(=O)c1ccc(C#N)cc1)[C@H]1[C@@H]2C[C@@H](c3ccnc4ccc(F)cc34)C[C@@H]21 [Compound 278]

>  <IC50>
< 0.2 µM

$$$$
>  <Molecule>
CCC(NC(=O)c1ccc(Cl)cc1)[C@H]1[C@@H]2C[C@@H](n3cc(C(N)=O)nn3)C[C@@H]21 (some centres unmarked) [Compound 95]

>  <IC50>
> 5 µM

$$$$
>  <Molecule>
CCC(NC(=O)c1ccc(Cl)cc1)[C@H]1[C@@H]2C[C@@H](NS(C)(=O)=O)C[C@@H]21 (some centres unmarked) [Compound 159]

>  <IC50>
0.2 to 2 µM

$$$$
>  <Molecule>
O=C(NC(CO)[C@H]1[C@@H]2C[C@@H](n3cc(C4CC4)nn3)C[C@@H]21)c1ccc(Cl)cc1 (some centres unmarked) [Compound 168]

>  <IC50>
2 to 5 µM

$$$$
>  <Molecule>
N#Cc1cccc(C(=O)NC[C@@H]2[C@H]3C[C@H](n4cnc5cc(F)c(F)cc54)C[C@@H]23)c1 [Compound 321]

>  <IC50>
0.2 to 2 µM

$$$$
>  <Molecule>
CCC(NC(=O)c1ccc(Cl)cc1)[C@H]1[C@@H]2C[C@@H](n3cnnc3C3CC3)C[C@@H]21 (some centres unmarked) [Compound 172]

>  <IC50>
0.2 to 2 µM

$$$$
>  <Molecule>
C[C@@H](C(=O)Nc1ccc(Cl)cc1)[C@H]1[C@@H]2C[C@@H](n3cnc4cc(F)c(F)cc43)C[C@@H]21 [Compound 298]

>  <IC50>
< 0.2 µM

$$$$
>  <Molecule>
O=C(Nc1ccc(Cl)cc1)[C@@H]1[C@@H]2CN(c3ncnc4ccc(F)cc34)C[C@@H]21 [Compound 250]

>  <IC50>
> 5 µM

$$$$
